tested on: blood coagulation; test: PT and aPTT assay in cynomolgus monkeys (Example 46); assay type: in vivo; details: Day 17; platelet poor plasma; relative to PBS group
Strand notation (5' to 3'): a small letter for the sugar, then the base; units joined by * are phosphorothioate-linked, units joined directly phosphodiester-linked; [ ] holds rarer units or linkages, { } end groups; capitals alone tell only the bases. e = 2'-O-(2-methoxyethyl) (MOE); [5mC] = 5-methylcytosine; d = 2'-deoxy (DNA)
Labelling field: enter true if recorded PT ratio (INR) is less than 1. Enter false if it equals or exceeds that cut-off.

[[record]]
substance = "ISIS 445531: 5-8-5 or 6-8-6 MOE microwalk gapmer (Table 44) (antisense eG*eG*e[5mC]*eA*eT*dT*dG*dG*dT*dG*d[5mC]*dA*d[5mC]*eA*eG*eT*eT*eT)"
discrete_label = "false"


PT ratio (INR) under 1? Item: ISIS 449711: 3-8-3, 4-8-4, 2-10-2, 3-10-3 or 4-10-4 MOE microwalk gapmer (Table 46) (antisense eA*e[5mC]*dA*dG*dT*dT*dT*d[5mC]*dT*dG*dG*d[5mC]*eA*eG) true

PT ratio (INR) under 1? Item: ISIS 449709: 3-8-3, 4-8-4, 2-10-2, 3-10-3 or 4-10-4 MOE microwalk gapmer (Table 46) (antisense eG*e[5mC]*eA*e[5mC]*dA*dG*dT*dT*dT*d[5mC]*dT*dG*dG*d[5mC]*eA*eG*eG*e[5mC]) true

PT ratio (INR) under 1? Item: ISIS 449707: 3-8-3, 4-8-4, 2-10-2, 3-10-3 or 4-10-4 MOE microwalk gapmer (Table 46) (antisense e[5mC]*eA*e[5mC]*eA*dG*dT*dT*dT*d[5mC]*dT*dG*dG*e[5mC]*eA*eG*eG) true

PT ratio (INR) under 1? Item: ISIS 445522: 5-8-5 or 6-8-6 MOE microwalk gapmer (Table 44) (antisense eG*e[5mC]*eA*e[5mC]*eA*dG*dT*dT*dT*d[5mC]*dT*dG*dG*e[5mC]*eA*eG*eG*e[5mC]) true

----------
conditions: mouse, in vivo, sc, 50 mg/kg
e = 2'-O-(2-methoxyethyl) (MOE); d = 2'-deoxy (DNA)
substances and their reported hemoglobin
Return type: number; implicit unit g/dL.

Illustrative cases are given below, each with its answer.
[[record]]
substance = "ISIS 445498: 5-8-5 or 6-8-6 MOE microwalk gapmer (Table 44) (antisense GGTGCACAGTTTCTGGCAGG; sugars from the 5' end e6 d8 e6, backbone and methylation of C not given here)"
reported_measurement = 13.9

[[record]]
substance = "ISIS 445503: 5-8-5 or 6-8-6 MOE microwalk gapmer (Table 44) (antisense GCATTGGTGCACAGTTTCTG; sugars from the 5' end e6 d8 e6, backbone and methylation of C not given here)"
reported_measurement = 13.6

[[record]]
substance = "ISIS 445505: 5-8-5 or 6-8-6 MOE microwalk gapmer (Table 44) (antisense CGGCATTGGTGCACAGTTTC; sugars from the 5' end e6 d8 e6, backbone and methylation of C not given here)"
reported_measurement = 14.6


Could you now consider this next substance?
Could you tell me which hemoglobin is on file for ISIS 445530: 5-8-5 or 6-8-6 MOE microwalk gapmer (Table 44) (antisense GCATTGGTGCACAGTTTC; sugars from the 5' end e5 d8 e5, backbone and methylation of C not given here) ? 15.1

----------
substances and their reported Percent inhibition of Factor 11 mRNA at 123.47 nM
system: human Factor 11 mRNA; test: Dose-dependent inhibition of human Factor 11 in HepG2 cells, electroporation 123.46-10,000 nM (Example 31); format: cell-based; details: electroporation, 123.47 nM, approx. 16 hours, relative to untreated control cells
Strand notation (5' to 3'): a small letter for the sugar, then the base; units joined by * are phosphorothioate-linked, units joined directly phosphodiester-linked; [ ] holds rarer units or linkages, { } end groups; capitals alone tell only the bases. e = 2'-O-(2-methoxyethyl) (MOE); [5mC] = 5-methylcytosine; d = 2'-deoxy (DNA)
Return type: number; implicit unit %.

Illustrative cases are given below, each with its answer.
[[record]]
substance = "445504 (antisense eG*eG*e[5mC]*eA*eT*eT*dG*dG*dT*dG*d[5mC]*dA*d[5mC]*dA*eG*eT*eT*eT*e[5mC]*eT) [compound 445504]"
system = "human Factor 11 mRNA"
reported_measurement = 8

[[record]]
substance = "416858 (antisense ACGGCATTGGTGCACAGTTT; 5-10-5 gapmer, further chemistry not given here) [compound 416858]"
system = "human Factor 11 mRNA"
reported_measurement = 0

[[record]]
substance = "416857 (antisense e[5mC]*eG*eG*e[5mC]*eA*dT*dT*dG*dG*dT*dG*d[5mC]*dA*d[5mC]*dA*eG*eT*eT*eT*e[5mC]) [compound 416857]"
system = "human Factor 11 mRNA"
reported_measurement = 2

[[record]]
substance = "416861 (antisense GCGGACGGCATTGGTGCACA; 5-10-5 gapmer, further chemistry not given here) [compound 416861]"
system = "human Factor 11 mRNA"
reported_measurement = 0

[[record]]
substance = "416856 (antisense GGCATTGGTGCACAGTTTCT; 5-10-5 gapmer, further chemistry not given here) [compound 416856]"
system = "human Factor 11 mRNA"
reported_measurement = 12


Could you tell me which Percent inhibition of Factor 11 mRNA at 123.47 nM is on file for 416851 (antisense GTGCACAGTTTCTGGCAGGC; 5-10-5 gapmer, further chemistry not given here) [compound 416851] ? 13

----------
assay: Hematology assays in cynomolgus monkeys (Example 45); type: in vivo; conditions: day 64; escalating dose regimen
substances and their reported WBC count
Return type: number; implicit unit µL⁻¹.

Illustrative cases are given below, each with its answer.
[[record]]
substance = "ISIS 416858: MOE gapmer, nucleobases 1275 to 1318 of SEQ ID NO: 1 (Table 8) (antisense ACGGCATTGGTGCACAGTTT; MOE gapmer, wing and gap sizes not given here)"
reported_measurement = 12000

[[record]]
substance = "ISIS 416864: MOE gapmer, nucleobases 1275 to 1318 of SEQ ID NO: 1 (Table 8) (antisense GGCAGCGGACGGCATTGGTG; MOE gapmer, wing and gap sizes not given here)"
reported_measurement = 11000

[[record]]
substance = "ISIS 416850: MOE gapmer, nucleobases 1275 to 1318 of SEQ ID NO: 1 (Table 8) (antisense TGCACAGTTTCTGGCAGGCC; MOE gapmer, wing and gap sizes not given here)"
reported_measurement = 11000

[[record]]
substance = "ISIS 417002: MOE gapmer, nucleobases 1275 to 1318 of SEQ ID NO: 1 (Table 8) (antisense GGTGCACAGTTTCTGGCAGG; MOE gapmer, wing and gap sizes not given here)"
reported_measurement = 11000


Could you now consider this next substance?
Could you tell me which WBC count is on file for ISIS 416838: MOE gapmer, nucleobases 1018 to 1042 of SEQ ID NO: 1 (Table 6) (antisense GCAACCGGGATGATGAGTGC; MOE gapmer, wing and gap sizes not given here) ? 13000

----------
tested on: Factor 11 protein; test: Factor 11 protein in monkey plasma by sandwich ELISA (Example 46); assay type: in vivo, cynomolgus monkeys; conditions: Day −14, plasma, 25 mg/kg subcutaneously
Strand notation (5' to 3'): a small letter for the sugar, then the base; units joined by * are phosphorothioate-linked, units joined directly phosphodiester-linked; [ ] holds rarer units or linkages, { } end groups; capitals alone tell only the bases. e = 2'-O-(2-methoxyethyl) (MOE); [5mC] = 5-methylcytosine; d = 2'-deoxy (DNA)
substances and their reported Inhibition of Factor 11 protein relative to the PBS control (percentage reduction)

Illustrative cases are given below, each with its answer.
[[record]]
substance = "416858 (antisense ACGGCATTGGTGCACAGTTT; 5-10-5 gapmer, further chemistry not given here) [compound 416858]"
reported_measurement = "4%"

[[record]]
substance = "445522 (antisense eG*e[5mC]*eA*e[5mC]*eA*dG*dT*dT*dT*d[5mC]*dT*dG*dG*e[5mC]*eA*eG*eG*e[5mC]) [compound 445522]"
reported_measurement = "2%"

[[record]]
substance = "449708 (antisense eA*e[5mC]*eA*dG*dT*dT*dT*d[5mC]*dT*dG*dG*e[5mC]*eA*eG) [compound 449708]"
reported_measurement = "1%"

[[record]]
substance = "449710 (antisense e[5mC]*eA*e[5mC]*dA*dG*dT*dT*dT*d[5mC]*dT*dG*dG*d[5mC]*eA*eG*eG) [compound 449710]"
reported_measurement = "1%"

[[record]]
substance = "449707 (antisense e[5mC]*eA*e[5mC]*eA*dG*dT*dT*dT*d[5mC]*dT*dG*dG*e[5mC]*eA*eG*eG) [compound 449707]"
reported_measurement = "0%"

[[record]]
substance = "449709 (antisense eG*e[5mC]*eA*e[5mC]*dA*dG*dT*dT*dT*d[5mC]*dT*dG*dG*d[5mC]*eA*eG*eG*e[5mC]) [compound 449709]"
reported_measurement = "1%"


Could you tell me which Inhibition of Factor 11 protein relative to the PBS control (percentage reduction) is on file for 445531 (antisense eG*eG*e[5mC]*eA*eT*dT*dG*dG*dT*dG*d[5mC]*dA*d[5mC]*eA*eG*eT*eT*eT) [compound 445531] ? 0%

Could you tell me which Inhibition of Factor 11 protein relative to the PBS control (percentage reduction) is on file for 449711 (antisense eA*e[5mC]*dA*dG*dT*dT*dT*d[5mC]*dT*dG*dG*d[5mC]*eA*eG) [compound 449711] ? 0%

Could you tell me which Inhibition of Factor 11 protein relative to the PBS control (percentage reduction) is on file for 416850 (antisense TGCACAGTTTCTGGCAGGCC; 5-10-5 gapmer, further chemistry not given here) [compound 416850] ? 0%
